target: CDK12 (nuclear staining in CAL-120 cells) (Homo sapiens); construct: endogenous in cells; host or cells: CAL-120 human breast cancer cells (DSMZ ACC 459); assay: CDK12 nuclear protein level: immunofluorescence/high content analysis (CAL-120); assay type: cell-based; conditions: ratio of IC50 CDK12 high ATP kinase assay to DC50 CDK12 degradation (IF, CAL-120)
observationType: (IC50 CDK12 high ATP) to (Degradation DC50 CDK12) ratio

Before answering, review these 4 worked examples.
compound: N[C@@H]1CCN(c2nc(NCc3nc4ccccc4[nH]3)n3ncc(Br)c3n2)C1
assayValue: 3560

compound: CC(C)c1cnn2c(NCc3nc4ccccc4[nH]3)nc(NCC(C)(C)O)nc12
assayValue: 1277

compound: FC(F)(F)Oc1ccc2[nH]c(CNc3nc(N4C[C@H]5CC[C@@H](C4)N5)nc4c(Br)cnn34)nc2c1
assayValue: 10

compound: Cc1cc2nc(CNc3nc(N4CCOCC4)nc4c(Br)cnn34)[nH]c2cc1C
assayValue: 79

[a] CC(C)c1cnn2c(NCc3nc4ccccc4[nH]3)nc(N3CCOC[C@@H]3C)nc12
[b] CN1CCN(c2nc(NCc3nc4cc(F)c(F)cc4[nH]3)n3ncc(Br)c3n2)CC1
[c] CN(CC(C)(C)O)c1nc(NCc2nc3cc(F)c(F)cc3[nH]2)n2ncc(Br)c2n1
Request: Ascending by (IC50 CDK12 high ATP) to (Degradation DC50 CDK12) ratio, please. Lab note: record answer as labels in requested order.
Response: a, c, b
(a: 537, c: 1086, b: 5220)

[I] Brc1cnn2c(NCc3nc4ccccc4[nH]3)nc(N3CC4CCC(C3)O4)nc12
[II] Clc1cc2nc(CNc3nc(N4CCOCC4)nc4c(-c5cncs5)cnn34)[nH]c2cc1Cl
Request: I would appreciate it if you could say which entry, I or II , has the lower (IC50 CDK12 high ATP) to (Degradation DC50 CDK12) ratio value. Which one? Tell me its label.
Response: I
(I: 390, II: 941)

* * *

biological target: CDK2/CycE (Homo sapiens); assay: CDK2/CycE kinase assay (TR-FRET, 2 mM ATP); settings: 2 mM ATP (high ATP); median; read-out: CDK2/CyclinE, 2 mM ATP (high ATP), IC50 (median)
observationType: IC50 (µM)

substanceSmiles: O[C@H]1CCN(c2nc(NCc3nc4ccccc4[nH]3)n3ncc(Br)c3n2)C1
measureUnit: µM
IC50: 7.75

[1] C[C@@H]1CN(c2nc(NCc3nc4cc(F)ccc4[nH]3)n3ncc(Br)c3n2)C[C@H](C)O1
[2] Cc1cnn2c(NCc3nc4ccccc4[nH]3)nc(N3CCN(C)CC3)nc12
[3] CC(C)c1cnn2c(NCc3nc4ccccc4[nH]3)nc(N3CCOCC3)nc12
Request: # desc sort on IC50 across 3 molecules Lab note: record answer as labels in requested order.
Response: 2, 1, 3

* * *

Biological target: CDK12 (nuclear staining in CAL-120 cells) (Homo sapiens, UniProt Q9NYV4)
Construct: endogenous in cells; host or cells: CAL-120 human breast cancer cells (DSMZ ACC 459)
Test: CDK12 nuclear protein level: immunofluorescence/high content analysis (CAL-120)
Assay type: cell-based
Conditions: CAL-120 cells, 24 h, immunofluorescence; 50% reduction of nuclear CDK12 staining intensity; median; read-out: CDK12 degradation IF, DC50- [mol/l] (median)
Procedure: In the context of the present invention, the term “DC50 CDK12” refers to the DC50 values obtained according to the assay described in this section (7) herein below, i.e. the DC50 values for the degradation of CDK12. Plates are then incubated for 24 h at 37° C. in an humidified incubator and fixed with 4% PFA for 10 min. […] Nuclear and cytoplasmic intensity as well as the nuclear/cytoplasmic intensity ratio is determined by automated image analysis using custom generated scripts (MetaXpress). […]
observationType: DC50 (nM)

[P] CN1CCN(c2nc(NCc3nc4c(F)c(F)ccc4[nH]3)n3ncc(CC(F)(F)F)c3n2)CC1 [Example 437]
[Q] Brc1cnn2c(NCc3nc4ccccc4[nH]3)nc(N3C[C@H]4CN[C@H]4C3)nc12.O=C(O)C(F)(F)F [Example 255]
[R] COc1cccc2[nH]c(CNc3nc(N4C[C@H]5C[C@@H]4CO5)nc4c(C5CC5)cnn34)nc12 [Example 198]
[S] CN(CC(C)(C)O)c1nc(NCc2nc3c(F)c(F)ccc3[nH]2)n2ncc(C3CC3)c2n1 [Example 292]
Request: Sort key = DC50. Sort direction = ascending. Apply to the list above. Lab note: record answer as labels in requested order.
Response: S, P, Q, R

* * *

Tested on: CAL-120, human breast adenocarcinoma cells
Assay: Proliferation assay CAL-120 (crystal violet, 4 days)
Assay type: cell-based
Settings: Homo sapiens, CAL-120, 96 h, CAL-120 cells, median, read-out: Prolif-CAL-120, IC50-[mol/l] (median)
Method: Human tumour cells were originally obtained from the American Type Culture Collection (ATCC), or from the Deutsche Sammlung von Mikroorganismen und Zellkulturen (DSMZ, German Collection of Microorganisms and Cell Cultures). […] Cell proliferation was determined by staining the cells with crystal violet: the cells were fixed by adding 20 microL/measuring point of an 11% glutaric aldehyde solution for 15 minutes at room temperature. […] The extinction was determined by photometry at a wavelength of 595 nm. […]
pIC50: −log10 of the molar value.
observationType: pIC50

Before answering, review these 6 worked examples.
substanceSmiles: c1cncc(-c2cnn3c(NCc4nc5ccccc5[nH]4)nc(N4CCOCC4)nc23)c1
observationType: pIC50
assayValue: 7.05
//
substanceSmiles: Fc1cccc(-c2cnn3c(NCc4nc5ccccc5[nH]4)nc(N4CCOCC4)nc23)c1
observationType: pIC50
assayValue: 6.98
//
substanceSmiles: CC(C)c1cnn2c(NCc3ncc(-c4ccccc4)[nH]3)nc(N3CCN(C)CC3)nc12
observationType: pIC50
assayValue: 7.68
//
substanceSmiles: Cc1cnn2c(NCc3nc4c(F)c(F)ccc4[nH]3)nc(N(C)CC(C)(C)O)nc12
observationType: pIC50
assayValue: 7.95
//
substanceSmiles: CN(CC(C)(C)O)c1nc(NCc2nc3cc(C(F)(F)F)ccc3[nH]2)n2ncc(C3CC3)c2n1
observationType: pIC50
assayValue: 8.27
//
substanceSmiles: Clc1cccc(-c2cnc(CNc3nc(N4CCOCC4)nc4c(Br)cnn34)[nH]2)c1
observationType: pIC50
assayValue: 8.38

[a] CN(CC(C)(C)O)c1nc(NCc2nc3c(F)c(Cl)ccc3[nH]2)n2ncc(C3CC3)c2n1
[b] CN1CCN(c2nc(NCc3nc4cc(Cl)ccc4[nH]3)n3ncc(Br)c3n2)CC1
Request: I would appreciate it if you could say which entry, a or b , has the lower pIC50 value. Which one? Tell me its label.
Response: a
(a: 8.31, b: 8.98)

* * *

molecular target: CDK9/CycT1 (Homo sapiens); construct: Recombinant full-length His-tagged human CDK9 and CycT1; purchased Life Technologies PV4131; host or cells: insect cells; assay: CDK9/CycT1 high ATP kinase assay (TR-FRET, 2 mM ATP); type: biochemical
Sequence (P50750 whole entry): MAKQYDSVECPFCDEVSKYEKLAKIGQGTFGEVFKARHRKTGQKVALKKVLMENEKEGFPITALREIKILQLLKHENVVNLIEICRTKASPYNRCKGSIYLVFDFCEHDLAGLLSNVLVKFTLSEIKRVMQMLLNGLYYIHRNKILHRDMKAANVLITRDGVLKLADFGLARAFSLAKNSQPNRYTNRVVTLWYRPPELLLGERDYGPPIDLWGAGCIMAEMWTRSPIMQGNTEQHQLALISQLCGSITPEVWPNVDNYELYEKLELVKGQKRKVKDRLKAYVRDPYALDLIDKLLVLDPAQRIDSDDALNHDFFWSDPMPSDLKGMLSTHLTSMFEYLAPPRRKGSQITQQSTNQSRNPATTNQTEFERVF
Sequence (O60563 whole entry partner): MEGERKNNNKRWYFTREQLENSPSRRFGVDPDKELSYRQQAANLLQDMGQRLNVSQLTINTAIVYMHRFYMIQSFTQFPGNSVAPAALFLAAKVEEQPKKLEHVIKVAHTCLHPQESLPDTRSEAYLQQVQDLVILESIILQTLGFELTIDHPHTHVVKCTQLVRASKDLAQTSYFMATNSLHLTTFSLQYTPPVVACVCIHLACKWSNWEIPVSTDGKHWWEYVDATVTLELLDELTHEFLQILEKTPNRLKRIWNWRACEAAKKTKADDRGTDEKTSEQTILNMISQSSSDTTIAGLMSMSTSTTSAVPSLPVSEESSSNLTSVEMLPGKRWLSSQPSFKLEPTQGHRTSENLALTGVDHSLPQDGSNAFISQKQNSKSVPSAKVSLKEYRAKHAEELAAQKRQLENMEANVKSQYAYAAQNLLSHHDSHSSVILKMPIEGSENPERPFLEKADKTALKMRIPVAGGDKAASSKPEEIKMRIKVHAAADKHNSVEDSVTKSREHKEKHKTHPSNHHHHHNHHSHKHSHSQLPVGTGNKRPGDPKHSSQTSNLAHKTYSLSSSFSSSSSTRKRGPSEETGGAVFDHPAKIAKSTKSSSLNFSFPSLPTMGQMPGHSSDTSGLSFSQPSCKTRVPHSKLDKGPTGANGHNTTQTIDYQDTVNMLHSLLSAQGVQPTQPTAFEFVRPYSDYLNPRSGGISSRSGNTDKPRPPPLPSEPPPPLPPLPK
observationType: IC50 (µM)
Write the value in µM as a bare number.

Request: Item Fc1cc2nc(CNc3nc(N4CC5CCC(C4)N5)nc4c(Br)cnn34)[nH]c2cc1Cl has what recorded IC50?
Response: 14

* * *

target: CYCLIN K (nuclear staining in CAL-120 cells) (Homo sapiens, UniProt O75909); construct: endogenous in cells; host or cells: CAL-120 human breast cancer cells (DSMZ ACC 459); experiment: CYCLIN K nuclear protein level: immunofluorescence high content analysis (CAL-120); format: cell-based; details: 24 h, 50% reduction of nuclear CCNK staining intensity, median, read-out: CYCLIN K degradation IF, DC50-[mol/l] (median)
Sequence (O75909 whole entry): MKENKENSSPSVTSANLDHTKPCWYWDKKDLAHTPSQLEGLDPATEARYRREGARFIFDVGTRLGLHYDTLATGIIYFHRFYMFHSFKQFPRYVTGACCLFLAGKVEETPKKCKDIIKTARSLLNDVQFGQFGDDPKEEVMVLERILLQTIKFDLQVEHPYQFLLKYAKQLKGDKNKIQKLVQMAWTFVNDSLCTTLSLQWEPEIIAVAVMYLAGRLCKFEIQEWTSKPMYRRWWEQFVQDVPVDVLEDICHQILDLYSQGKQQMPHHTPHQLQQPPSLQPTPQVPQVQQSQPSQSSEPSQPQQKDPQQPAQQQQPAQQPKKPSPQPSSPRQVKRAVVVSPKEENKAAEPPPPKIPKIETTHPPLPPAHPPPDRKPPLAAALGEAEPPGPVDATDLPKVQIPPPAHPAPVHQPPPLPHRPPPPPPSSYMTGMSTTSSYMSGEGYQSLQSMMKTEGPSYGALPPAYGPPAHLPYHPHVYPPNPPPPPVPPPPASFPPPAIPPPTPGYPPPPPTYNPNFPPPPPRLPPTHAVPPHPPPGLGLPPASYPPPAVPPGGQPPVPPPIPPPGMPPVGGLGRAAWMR
Sequence (Q9NYV4 whole entry partner): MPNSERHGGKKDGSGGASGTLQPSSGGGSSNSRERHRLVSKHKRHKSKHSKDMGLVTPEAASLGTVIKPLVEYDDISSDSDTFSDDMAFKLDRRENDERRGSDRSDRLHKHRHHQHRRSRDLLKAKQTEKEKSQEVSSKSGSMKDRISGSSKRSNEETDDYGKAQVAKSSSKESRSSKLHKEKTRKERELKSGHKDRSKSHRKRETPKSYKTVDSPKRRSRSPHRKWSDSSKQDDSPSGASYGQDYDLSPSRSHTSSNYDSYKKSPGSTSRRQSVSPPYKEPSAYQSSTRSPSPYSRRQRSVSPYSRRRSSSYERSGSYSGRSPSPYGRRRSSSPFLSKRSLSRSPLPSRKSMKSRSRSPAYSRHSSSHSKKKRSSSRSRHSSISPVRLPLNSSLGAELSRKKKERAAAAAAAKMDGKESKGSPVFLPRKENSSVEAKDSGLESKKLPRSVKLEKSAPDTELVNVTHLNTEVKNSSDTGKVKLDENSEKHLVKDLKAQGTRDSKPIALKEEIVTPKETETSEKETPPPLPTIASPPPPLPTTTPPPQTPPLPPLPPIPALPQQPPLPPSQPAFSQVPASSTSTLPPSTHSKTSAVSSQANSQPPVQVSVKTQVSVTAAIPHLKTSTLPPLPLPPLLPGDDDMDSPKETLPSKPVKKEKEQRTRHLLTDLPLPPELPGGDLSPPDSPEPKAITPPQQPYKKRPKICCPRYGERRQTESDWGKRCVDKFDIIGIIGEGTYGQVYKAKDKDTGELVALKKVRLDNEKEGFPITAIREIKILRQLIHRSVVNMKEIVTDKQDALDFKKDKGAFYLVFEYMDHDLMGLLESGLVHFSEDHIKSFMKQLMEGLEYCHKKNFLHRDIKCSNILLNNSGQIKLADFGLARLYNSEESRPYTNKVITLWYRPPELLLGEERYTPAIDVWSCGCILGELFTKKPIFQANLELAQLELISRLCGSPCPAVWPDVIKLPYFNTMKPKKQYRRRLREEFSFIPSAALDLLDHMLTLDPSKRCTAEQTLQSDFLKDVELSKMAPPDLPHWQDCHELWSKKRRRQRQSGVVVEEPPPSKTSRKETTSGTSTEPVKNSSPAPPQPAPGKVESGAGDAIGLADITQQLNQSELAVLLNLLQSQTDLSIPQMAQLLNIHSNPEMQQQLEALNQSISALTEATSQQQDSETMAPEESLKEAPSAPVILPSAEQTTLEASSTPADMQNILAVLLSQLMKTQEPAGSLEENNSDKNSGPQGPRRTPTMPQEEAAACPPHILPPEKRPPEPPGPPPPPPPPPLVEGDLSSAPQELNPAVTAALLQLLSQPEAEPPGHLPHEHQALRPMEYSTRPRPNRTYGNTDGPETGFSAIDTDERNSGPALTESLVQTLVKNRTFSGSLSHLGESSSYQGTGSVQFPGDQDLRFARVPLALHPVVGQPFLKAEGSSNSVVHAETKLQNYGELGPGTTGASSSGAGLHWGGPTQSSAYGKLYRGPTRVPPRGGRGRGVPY
observationType: DC50 (nM)

substanceSmiles: CN1CCN(c2nc(NCc3nc4ccccc4[nH]3)n3ncc(C(F)(F)F)c3n2)CC1
DC50, nM: 0.679

[I] Brc1cnn2c(NCc3nc4ccccc4[nH]3)nc(N3CCOCC3)nc12
[II] c1ccc2[nH]c(CNc3nc(N4CCNCC4)nc4c(C5CC5)cnn34)nc2c1
[III] N[C@@H]1CN(c2nc(NCc3nc4ccccc4[nH]3)n3ncc(Br)c3n2)CC12CC2
[IV] Fc1ccc2[nH]c(CNc3nc(N4CCOCC4)nc4c(-c5cncs5)cnn34)nc2c1F.O=C(O)C(F)(F)F
Request: # desc sort on DC50 across 4 compounds Lab note: record answer as labels in requested order.
Response: I, II, IV, III
(I: 2.46 nM, II: 0.933 nM, IV: 0.385 nM, III: 0.11 nM)

* * *

target: CDK2/CycE (Homo sapiens); assay: CDK2/CycE kinase assay (TR-FRET, 2 mM ATP); settings: 2 mM ATP (high ATP); median; read-out: CDK2/CyclinE, 2 mM ATP (high ATP), IC50 (median)
pIC50: −log10 of the molar value.
observationType: pIC50

compound: Brc1cnn2c(NCc3ncc(-c4ccccn4)[nH]3)nc(N3CCOCC3)nc12 [Example 90]
observationType: pIC50
assayValue: 5.75
--
compound: CC(C)(O)CNc1nc(NCc2nc3ccccc3[nH]2)n2ncc(Br)c2n1 [Example 229]
observationType: pIC50
assayValue: 5.84

[P] C[C@@H]1COCCN1c1nc(NCc2nc3ccccc3[nH]2)n2ncc(Br)c2n1 [Example 56]
[Q] Brc1cnn2c(NCc3nc4ccccc4[nH]3)nc(OC3CCNCC3)nc12 [Example 411]
Request: I would appreciate it if you could say which entry, P or Q , has the lower pIC50 value. Which one? Tell me its label.
Response: Q
